Biological target: T1, HAESA LRR ectodomain (Arabidopsis thaliana, UniProt P47735 15-621)
T1 sequence (looked up): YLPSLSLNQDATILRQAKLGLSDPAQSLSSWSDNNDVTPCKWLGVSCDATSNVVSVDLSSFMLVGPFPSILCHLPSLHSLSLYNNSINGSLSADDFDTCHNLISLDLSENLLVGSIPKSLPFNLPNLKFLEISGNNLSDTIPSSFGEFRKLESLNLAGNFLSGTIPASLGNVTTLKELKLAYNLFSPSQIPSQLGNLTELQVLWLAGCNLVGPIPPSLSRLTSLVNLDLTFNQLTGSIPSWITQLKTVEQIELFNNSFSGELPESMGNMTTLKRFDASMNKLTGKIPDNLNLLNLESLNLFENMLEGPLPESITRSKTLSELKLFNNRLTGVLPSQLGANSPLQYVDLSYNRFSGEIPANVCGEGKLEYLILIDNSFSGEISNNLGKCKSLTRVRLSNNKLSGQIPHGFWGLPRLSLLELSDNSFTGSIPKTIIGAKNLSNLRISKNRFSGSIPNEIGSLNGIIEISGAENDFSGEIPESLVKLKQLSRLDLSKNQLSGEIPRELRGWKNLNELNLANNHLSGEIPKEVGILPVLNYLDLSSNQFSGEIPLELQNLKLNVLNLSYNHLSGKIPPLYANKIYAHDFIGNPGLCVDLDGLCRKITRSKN
Test: grating-coupled interferometry
Square brackets hold non-standard residues; d marks the D form. Ends that are not written are not given here. Hyp = O=C(O)[C@@H]1C[C@@H](O)CN1
Property: Kd

// returns reported Kd for input YVPIPPSA[Hyp]SKRHN [INFLORESCENCE DEFICIENT IN ABSCISSION (IDA) peptide, Y-IDA]
~30 µM

Every entry's value here was drawn from paper PMC5879659.
